Target: T1, Dimeric fibrinogen-like domain of monkey (Macca fascicularis) Ang-2 conjugated to human IgG1 (monkey (Macca fascicularis))
T1 construct: also called Dimeric Monkey Ang-2FD; Monkey Ang-2FD-hFc
T1 sequence (chain, as listed by the source limits assumed): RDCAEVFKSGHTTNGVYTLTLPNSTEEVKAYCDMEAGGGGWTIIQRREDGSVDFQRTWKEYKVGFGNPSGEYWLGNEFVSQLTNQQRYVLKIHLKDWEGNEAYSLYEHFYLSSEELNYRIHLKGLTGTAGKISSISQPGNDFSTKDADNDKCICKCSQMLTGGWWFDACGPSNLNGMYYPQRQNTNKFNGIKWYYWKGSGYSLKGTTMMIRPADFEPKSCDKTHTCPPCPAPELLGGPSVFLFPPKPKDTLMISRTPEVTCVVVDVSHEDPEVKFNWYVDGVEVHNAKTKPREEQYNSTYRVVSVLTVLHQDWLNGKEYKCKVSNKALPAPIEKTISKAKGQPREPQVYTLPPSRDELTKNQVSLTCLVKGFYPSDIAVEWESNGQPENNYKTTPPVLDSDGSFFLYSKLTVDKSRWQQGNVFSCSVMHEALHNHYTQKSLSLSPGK
Experiment: SPR, hIgG1 antibody captured, room temp
Source text: Antibody was captured on a goat anti-mouse IgG polyclonal antibody surface, a goat anti-human κ polyclonal antibody (Southern Biotech, Birmingham, Ala.) surface or a goat anti-human IgG polyclonal antibody (Jackson Immuno Research Lab, West Grove, Pa.) surface created through direct amine coupling to a BIACORE™ CM5 sensor chip to form a captured antibody surface. […] Antigen-antibody binding and dissociation were monitored in real time at room temperature. […]
For each entry below, report its pKd value.
On this scale, pKd is minus log10 of a concentration expressed in M (mol/L).

The binder H1H749N (antibody, V domains shown) VH: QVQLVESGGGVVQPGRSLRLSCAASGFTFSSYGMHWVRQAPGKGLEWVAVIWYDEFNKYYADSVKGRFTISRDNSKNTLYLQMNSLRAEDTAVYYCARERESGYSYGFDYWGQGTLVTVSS VL: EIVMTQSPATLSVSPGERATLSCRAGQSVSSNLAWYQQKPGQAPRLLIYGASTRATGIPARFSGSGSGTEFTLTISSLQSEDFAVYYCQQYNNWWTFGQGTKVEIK showed pKd equal to 9.39

pKd reading for H1H693P (antibody, V domains shown) VH: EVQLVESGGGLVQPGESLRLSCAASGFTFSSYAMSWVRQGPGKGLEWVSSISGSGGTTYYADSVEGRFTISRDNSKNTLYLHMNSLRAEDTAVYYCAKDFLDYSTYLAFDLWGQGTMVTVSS VL: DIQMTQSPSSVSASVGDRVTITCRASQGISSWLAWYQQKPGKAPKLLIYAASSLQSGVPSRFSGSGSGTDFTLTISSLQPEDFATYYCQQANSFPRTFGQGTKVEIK : 8.93

Record H1H704P (antibody, V domains shown) VH: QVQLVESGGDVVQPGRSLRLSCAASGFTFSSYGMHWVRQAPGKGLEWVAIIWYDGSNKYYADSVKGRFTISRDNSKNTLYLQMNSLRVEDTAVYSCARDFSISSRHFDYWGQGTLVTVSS VL: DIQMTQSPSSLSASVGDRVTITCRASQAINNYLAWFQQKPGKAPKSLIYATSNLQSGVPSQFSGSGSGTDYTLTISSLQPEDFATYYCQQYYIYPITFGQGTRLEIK , field pKd: 9.09
